Hello, the source for this data is ChEMBL document CHEMBL1145498, in case you need it.

# SUBJECT_OF_TEST: Casein kinase I isoform gamma-3 (Homo sapiens) (UniProt Q9Y6M4)
# Sequence (Q9Y6M4 whole entry, looked up, canonical isoform): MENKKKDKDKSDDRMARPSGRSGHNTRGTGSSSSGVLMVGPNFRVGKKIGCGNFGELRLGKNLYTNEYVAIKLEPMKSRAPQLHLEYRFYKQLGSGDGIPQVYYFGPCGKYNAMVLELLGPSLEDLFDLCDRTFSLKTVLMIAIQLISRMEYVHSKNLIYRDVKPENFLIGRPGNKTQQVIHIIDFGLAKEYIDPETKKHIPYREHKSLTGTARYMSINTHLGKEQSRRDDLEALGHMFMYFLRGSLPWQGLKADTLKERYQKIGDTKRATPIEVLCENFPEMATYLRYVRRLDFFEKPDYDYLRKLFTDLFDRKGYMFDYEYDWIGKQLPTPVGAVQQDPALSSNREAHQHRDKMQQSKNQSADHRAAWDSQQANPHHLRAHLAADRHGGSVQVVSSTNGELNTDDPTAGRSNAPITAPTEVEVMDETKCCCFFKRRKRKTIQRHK
Label satisfied when ΔTm is at or above 1 °C; otherwise label not satisfied.

Consider the worked cases shown below.
>>> df
                                   molecule    label_value
0  O=C(O)c1cc(N(Cc2ccccc2O)Cc2cc(O)ccc2O)ccc1O  not satisfied
1  Cc1cncc2cccc(S(=O)(=O)N3CCCNC[C@@H]3C)c12  not satisfied
2  C[S+]([O-])c1ccc(CSc2nc(-c3ccc(F)cc3)c(-c3ccncc3)[nH]2)cc1 (configuration not stated)  not satisfied
3   CC(C)(C)n1nc(-c2ccc(Cl)cc2)c2c(N)ncnc21  not satisfied
4  O=C1NC(=O)c2c1c1c3ccccc3n3c1c1c2c2ccccc2n1C1CCC3O1  not satisfied
5  Cn1cc(C2=C(c3cn(CCCN)c4ccccc34)C(=O)NC2=O)c2ccccc21  not satisfied
6  O=S(=O)(NCCNC/C=C/c1ccc(Br)cc1)c1cccc2cnccc12  not satisfied
7      O=S(=O)(c1cccc2c(Cl)cccc12)N1CCCNCC1  not satisfied

Quick check, ΔTm >= 1 °C? `CC(C)c1nn(-c2c(Cl)cccc2Cl)c2nc(Cc3ccc(OCCO)cc3)[nH]c(=O)c12` satisfied

What do you get for `CCOC(=O)c1c(C)[nH]c(/C=C2\C(=O)Nc3ccccc32)c1C` ? not satisfied

What do you get for `C#Cc1cccc(Nc2ncnc3cc(OCCOC)c(OCCOC)cc23)c1` ? not satisfied

What do you get for `COc1ccc(CNc2nc(N(CCO)CCO)nc3c2ncn3C(C)C)cc1` ? satisfied

###

Record: ΔTm reported on Serine/threonine-protein kinase VRK2 (Homo sapiens) (UniProt Q86Y07).
Sequence (Q86Y07 whole entry): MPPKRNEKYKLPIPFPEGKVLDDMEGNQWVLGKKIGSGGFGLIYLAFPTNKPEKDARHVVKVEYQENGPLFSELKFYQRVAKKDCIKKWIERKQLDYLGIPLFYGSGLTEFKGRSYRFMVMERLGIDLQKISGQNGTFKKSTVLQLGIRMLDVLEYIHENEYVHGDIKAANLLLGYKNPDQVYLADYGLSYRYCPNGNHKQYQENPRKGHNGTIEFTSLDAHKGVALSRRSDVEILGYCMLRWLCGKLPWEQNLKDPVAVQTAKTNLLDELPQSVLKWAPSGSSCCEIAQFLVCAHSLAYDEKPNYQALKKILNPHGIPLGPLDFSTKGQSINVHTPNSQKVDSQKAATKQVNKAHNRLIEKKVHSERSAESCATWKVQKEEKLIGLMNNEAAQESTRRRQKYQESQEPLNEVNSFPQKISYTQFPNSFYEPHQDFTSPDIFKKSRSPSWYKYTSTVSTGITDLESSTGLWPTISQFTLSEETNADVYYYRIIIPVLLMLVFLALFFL
Form entry: value (°C) — number only.

I'd like to know its ΔTm. The compound in question is `O=c1c(-c2ccc(O)cc2)coc2cc(O)cc(O)c12` 0.1

What do you get for `C/C(O)=C(\C#N)C(=O)Nc1cc(Br)ccc1Br` ? 0.1

What do you get for `O=C(O)/C=C/c1cc(CO)ccc1CO` ? 0.3

What do you get for `O=c1cc(-c2ccc(O)cc2)oc2cc(O)cc(O)c12` ? 0.6

What do you get for `NC(=O)c1ccc2[nH]c(-c3ccc(Oc4ccc(Cl)cc4)cc3)nc2c1` ? 0.5

What do you get for `Nc1cccc(-c2cc3c(Oc4cccc(O)c4)ncnc3[nH]2)c1` ? 0.5

###

# SUBJECT_OF_TEST: Cyclin-dependent kinase-like 1 (Homo sapiens)
Label condition met when ΔTm is at or above -0.1 °C; otherwise label condition not met.

                          molecule        label_value
0  O=C(O)c1cc(NCc2cc(O)ccc2O)ccc1O  condition not met

Quick check, ΔTm >= -0.1 °C? Cl.Cn1cc(C2=C(c3ccc4cc5n(c4c3)CCC(CN)C5)C(=O)NC2=O)c2ccccc21 (stereo not given) condition met

What do you get for `COc1ccc(COc2ccc(Cc3cnc(N)nc3N)cc2OC)cc1` ? condition not met

What do you get for `O=C(Nc1cccc(Nc2nccc(Nc3cccc(C(F)(F)F)c3)n2)c1)C1CC1` ? condition met

###

# SUBJECT_OF_TEST: Calcium/calmodulin-dependent protein kinase type II subunit gamma (Homo sapiens) (UniProt Q13555)
# Sequence (Q13555 whole entry): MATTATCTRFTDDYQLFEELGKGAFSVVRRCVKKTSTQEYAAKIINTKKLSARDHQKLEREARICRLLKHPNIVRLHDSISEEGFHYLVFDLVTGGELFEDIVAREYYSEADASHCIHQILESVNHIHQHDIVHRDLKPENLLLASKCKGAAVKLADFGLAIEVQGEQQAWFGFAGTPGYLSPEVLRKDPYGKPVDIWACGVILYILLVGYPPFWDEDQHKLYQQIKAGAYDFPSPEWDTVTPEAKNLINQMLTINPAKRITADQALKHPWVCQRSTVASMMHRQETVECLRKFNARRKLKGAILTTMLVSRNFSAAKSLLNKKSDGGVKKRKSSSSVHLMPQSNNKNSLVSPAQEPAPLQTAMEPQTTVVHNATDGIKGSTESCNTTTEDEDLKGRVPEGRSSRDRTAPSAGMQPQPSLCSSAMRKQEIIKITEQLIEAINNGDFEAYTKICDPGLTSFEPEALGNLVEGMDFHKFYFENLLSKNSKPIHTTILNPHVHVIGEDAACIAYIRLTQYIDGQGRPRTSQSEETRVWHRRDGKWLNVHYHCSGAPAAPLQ
Below: a set of entries, each annotated with reported ΔTm.
Form entry: value (°C) — number only.

Examples from the recorded data:
>>> print(df.to_string())
                                   molecule  measured_value
0  O=Nc1c(-c2c(O)[nH]c3ccccc23)[nH]c2ccccc12             2.3
1  COc1cc(OC)c(/C=C2\C(=O)Nc3ccccc32)c(OC)c1               0
2  COc1cc2c(cc1OC)-c1n[nH]c(Nc3cccc(F)c3)c1C2            -0.1
3  NC1=NC(=O)/C(=C2\CCNC(=O)c3[nH]c(Br)cc32)N1 [HYMENIALDISINE]             0.2
4  N#CC(C#N)=Cc1ccc(O)c(O)c1 [TYRPHOSTIN 23]            -0.1

I'd like to know its ΔTm. The molecule in question is `O=C1Cc2c([nH]c3ccc([N+](=O)[O-])cc23)-c2ccccc2N1` -0.1

What do you get for O=C1c2ccccc2-[n+]2ccc3c([nH]c4ccccc43)c21 [FASCAPLYSIN CHLORIDE] ? -1.8

What do you get for `Cn1cc(C2=C(c3cn(CCCSC(=N)N)c4ccccc34)C(=O)NC2=O)c2ccccc21` ? 5.2

###

# SUBJECT_OF_TEST: Calcium/calmodulin-dependent protein kinase type IV (Homo sapiens)
# Sequence (whole entry): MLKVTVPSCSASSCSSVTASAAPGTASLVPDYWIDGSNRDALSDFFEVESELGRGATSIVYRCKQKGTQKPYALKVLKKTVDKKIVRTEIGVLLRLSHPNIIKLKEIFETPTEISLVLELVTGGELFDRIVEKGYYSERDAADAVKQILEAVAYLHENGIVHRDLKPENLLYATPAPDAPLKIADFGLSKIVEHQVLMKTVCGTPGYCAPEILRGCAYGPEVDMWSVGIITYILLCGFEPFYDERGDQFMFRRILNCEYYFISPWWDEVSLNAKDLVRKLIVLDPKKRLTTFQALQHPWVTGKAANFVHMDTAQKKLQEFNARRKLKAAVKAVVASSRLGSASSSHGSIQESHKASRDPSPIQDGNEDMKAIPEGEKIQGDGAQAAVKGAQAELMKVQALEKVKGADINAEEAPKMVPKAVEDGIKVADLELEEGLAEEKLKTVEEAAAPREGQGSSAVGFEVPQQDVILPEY
Below: a set of entries, each annotated with reported ΔTm.
Form entry: value (°C) — number only.

Examples from the recorded data:
                                   molecule  measured_value
0  O=C1Cc2c([nH]c3ccc(Br)cc23)-c2ccccc2N1 [KENPAULLONE]             0.3
1        O=c1ccc2ccc(O)c(O)c2o1 [DAPHNETIN]            -0.1
2  Oc1cccc(-c2nc(N3CCOCC3)c3oc4ncccc4c3n2)c1               0
3  COC(=O)[C@]1(O)C[C@@H]2O[C@@]1(C)n1c3ccccc3c3c4c(c5c6ccccc6n2c5c31)C(=O)NC4 (single isomer, unassigned)             1.8

I'd like to know its ΔTm. The molecule in question is C[S+]([O-])c1ccc(-c2nc(-c3ccc(F)cc3)c(-c3ccncc3)[nH]2)cc1 (centres undefined) [SB-203580] 0

What do you get for `COc1ccc(Cl)cc1NC(=O)Nc1cc(C)nc2ccccc12` ? 0.6

What do you get for CN1CCC(Nc2ncc3ncnc(Nc4ccc(F)c(Cl)c4)c3n2)CC1 [FALNIDAMOL] ? 0.1

What do you get for O=C1NC(=O)c2c1c1c3ccccc3[nH]c1n1cncc21 [ISOGRANULATIMIDE] ? 6

What do you get for `NC(=O)c1ccc(-c2nc(-c3ccc4c(c3)OCCO4)c(-c3ccccn3)[nH]2)cc1` ? -0.9

###

# SUBJECT_OF_TEST: Dual specificity protein kinase CLK1 (Homo sapiens)
Label Condition met when ΔTm is at or above 2 °C; otherwise label Condition not met.

>>> print(df.to_string())
                                   molecule                           subject_of_test        label_value
0  COc1ccc(S(=O)(=O)N(CCO)c2ccccc2CN(C)C/C=C/c2ccc(Cl)cc2)cc1  Dual specificity protein kinase CLK1 (Homo sapiens)  Condition not met
1  N#C/C(=C(/N)Sc1ccc(N)cc1)c1ccccc1C(F)(F)F  Dual specificity protein kinase CLK1 (Homo sapiens)  Condition not met

As a next step, examine the molecule that follows.
Quick check, ΔTm >= 2 °C? `O=C1Nc2ccc(I)cc2/C1=C\c1cc(Br)c(O)c(Br)c1` Condition not met

###

Below: a set of entries, each annotated with reported ΔTm.
# SUBJECT_OF_TEST: Serine/threonine-protein kinase OSR1 (Homo sapiens) (UniProt O95747)
# Sequence (O95747 2-527 limits assumed): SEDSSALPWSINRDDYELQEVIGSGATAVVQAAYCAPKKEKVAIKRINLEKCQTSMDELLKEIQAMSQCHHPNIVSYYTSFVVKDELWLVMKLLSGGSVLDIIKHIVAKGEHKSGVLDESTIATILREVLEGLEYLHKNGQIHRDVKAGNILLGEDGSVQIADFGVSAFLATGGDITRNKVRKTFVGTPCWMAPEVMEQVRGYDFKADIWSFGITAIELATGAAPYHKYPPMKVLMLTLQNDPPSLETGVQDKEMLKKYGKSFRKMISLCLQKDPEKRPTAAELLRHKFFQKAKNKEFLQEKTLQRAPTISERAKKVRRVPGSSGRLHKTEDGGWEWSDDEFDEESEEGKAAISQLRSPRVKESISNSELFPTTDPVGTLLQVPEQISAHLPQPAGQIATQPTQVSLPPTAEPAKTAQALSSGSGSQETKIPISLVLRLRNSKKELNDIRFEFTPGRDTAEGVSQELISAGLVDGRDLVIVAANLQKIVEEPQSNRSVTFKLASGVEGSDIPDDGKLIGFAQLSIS
Form entry: value (°C) — number only.

>>> print(df.to_string())
                                   compound  measured_value
0  Oc1cccc(-c2nc(N3CCOCC3)c3oc4ncccc4c3n2)c1               2
1  CCCCc1c(-c2ccc(O)cc2)[nH]c2nccnc12 [ALOISINE A]             1.6
2  Cc1c2ccncc2c(C)c2c1[nH]c1ccccc12 [ELLIPTECINE]             0.3
3  O=C(Nc1cccc(Nc2cc(Nc3cccc(C(F)(F)F)c3)ncn2)c1)C1CC1             0.9
4  Cn1cc(C2=C(c3cn(CCCSC(=N)N)c4ccccc34)C(=O)NC2=O)c2ccccc21            -0.5

Give Serine/threonine-protein kinase OSR1 (Homo sapiens) (UniProt O95747) ΔTm for `O=C(O)c1cc(NCc2cc(O)ccc2O)ccc1O` 0

What do you get for `N=C(N)NCCNS(=O)(=O)c1cccc2cnccc12` ? 1.1

What do you get for `N#C/C(=C1/Nc2ccccc2S1)c1ccnc(NCCc2cccnc2)n1` ? 1.4

What do you get for Cn1cnc2c(NCc3ccccc3)nc(NCCO)nc21 [OLOMOUCINE] ? 0.2

What do you get for `CCOc1cc(/C=C(\C#N)C(N)=O)cc(CSc2ccccc2)c1O` ? 0.9

What do you get for N#CC(C#N)=Cc1ccc(O)c(O)c1 [TYRPHOSTIN 23] ? 0.8
